target: M1-family alanyl aminopeptidase (Plasmodium falciparum 3D7); assay: PfM1AAP enzyme inhibition, dose response, selectivity assay for PfM17LAP inhibitor project, biochemical, QFRET, H-Leu-NHMec substrate, set 2 (AID 602223); conditions: recombinant PfM1AAP, H-Leu-NHMec fluorogenic cleavage
Inconclusive results are not listed.
Each entry below carries its reported IC50.

• CCCCc1ccc(CC(=O)NO)cc1 = 2.57 µM
• O=C(Cc1ccc2c(c1)CCCC2)NO = 1.41 µM
• CCCCCCCCCC(=O)NO = 13.3 µM
• COc1ccc(CCCC(=O)NO)cc1 = 95.8 µM

Recorded IC50 of CCOc1ccc(CC(=O)NO)cc1 , please. 7 µM

Dear colleague, I am looking for the recorded IC50 of the following compound: O=C(Cc1ccc(OCc2ccccc2)cc1)NO 2.89 µM

// IC50 lookup, key: CCCCOc1ccc(C(=O)NO)cc1 99.1 µM

IC50 for Cc1ccc(CC(=O)NO)cc1 ? 5.77 µM

Consider the compound CCCCOc1ccc(CC(=O)NO)cc1 and give its measured IC50. 14 µM

Fill in: IC50 of O=C(Cc1ccc(Oc2ccccc2)cc1)NO is ___ 5.45 µM

Fill in: IC50 of CC(C)COc1ccc(CC(=O)NO)cc1 is ___ 23.2 µM

What value of IC50 has been reported for the following compound? COc1ccc(CC(=O)NO)cc1 4.58 µM
